Measurement notes: pH solubility
Assay type: physicochemical
Condition notes: upper pH
Protocol: pH Solubility. […] Protein was either lyophilized and then resuspended in buffer cocktail mixtures, or concentrated and then spiked into buffer cocktail mixtures at a final protein concentration of 5 to 30 mg/ml. […] Turbidity of proteins was determined by measuring the absorbance of protein solutions at 650 nm. […] The pH range over which select proteins remained greater than 80% soluble as determined by Bradford and the A650 value are listed in Table E31C.
Some molecules, each annotated with its measured pH Range where Protein is >80% detected as Soluble and A650 <1 OD: High.
Lab note: record just the number, no unit beside it.

- Molecule: "SEQID-00511: protein of the 168 nutritive polypeptide library (protein, Arthrospira platensis C1, protein of the 168 nutritive polypeptide library) MVLFGFGKKKSLPKPEEALPGRDRVMSVPDRHYINGNPLKPPFPEGMEQAVFGLGCFWGAERKFWQQQGVFSTAVGYAGGYTKNPTYEEVCSGMTGHTEVVLVVFDPKVISYTDLLKLFWESHNPTQGMRQGNDTGTQYRSAIYTYSDEQQRLALASRDRYQQALSAASYGEITTEIAPAQEFYYAEAYHQQYLGKNPNGYCGLGGTGVGCPAMTETSV"
  Assay result: 7.1

Q: Indicate its recorded pH Range where Protein is >80% detected as Soluble and A650 <1 OD: High; the molecule in question is SEQID-00269: nutritive polypeptide (protein) DLKKKLDDDLGTLENLEELKKKLLKDLELLSQRLEELALAYDKLEKTKTRLQQELDDLLLDLDHQ
A: 9.1
